Hello, the source for this data is ChEMBL document CHEMBL1124385, in case you need it.

TEST_TARGET: Beta-2 adrenergic receptor (Cavia porcellus)
Sequence (Q8K4Z4 whole entry): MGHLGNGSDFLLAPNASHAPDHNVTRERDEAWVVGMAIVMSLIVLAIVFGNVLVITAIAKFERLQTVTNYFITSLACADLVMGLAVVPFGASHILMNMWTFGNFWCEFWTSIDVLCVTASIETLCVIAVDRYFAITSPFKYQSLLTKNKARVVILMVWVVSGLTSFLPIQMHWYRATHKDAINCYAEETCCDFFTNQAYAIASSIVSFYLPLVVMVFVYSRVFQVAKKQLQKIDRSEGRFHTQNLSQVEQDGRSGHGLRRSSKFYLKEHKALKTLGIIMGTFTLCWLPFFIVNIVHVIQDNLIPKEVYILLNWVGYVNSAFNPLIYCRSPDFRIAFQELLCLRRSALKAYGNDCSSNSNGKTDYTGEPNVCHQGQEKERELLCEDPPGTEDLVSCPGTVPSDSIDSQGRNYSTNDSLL
PROTOCOL_NOTES: Beta-2 adrenergic receptor blocking was assessed from 50% inhibition of the isoproterenol submaximal response on isolated Guinea pig trachea(IT)
pIC50: −log10 of the molar value.
TEST_READOUT: pIC50

>  <MOLECULE>
CC(C)NCC(O)CO/N=C1/c2ccccc2C2CCCCCC12O (stereo not drawn)

>  <TEST_READOUT>
pIC50

>  <VAL>
< 5.00

$$$$
>  <MOLECULE>
CC(C)NCC(O)CO/N=C1/c2ccccc2C2CCCCC12OCCO (stereo not drawn)

>  <TEST_READOUT>
pIC50

>  <VAL>
< 5.00

$$$$
>  <MOLECULE>
COC12CCCCCCCCCC1c1ccccc1/C2=N/OCC(O)CNC(C)C (stereo not drawn)

>  <TEST_READOUT>
pIC50

>  <VAL>
< 5.00

$$$$
>  <MOLECULE>
COc1cc(CCNCC(O)CO/N=C2/c3ccccc3C3CCCCCCCCCC23OC)cc(OC)c1 (stereo not drawn)

>  <TEST_READOUT>
pIC50

>  <VAL>
< 5.00

$$$$
>  <MOLECULE>
COc1cc(CCNCC(O)CO/N=C2/c3ccccc3C3CCCCCC23OC)cc(OC)c1 (stereo not drawn)

>  <TEST_READOUT>
pIC50

>  <VAL>
< 5.00

$$$$
>  <MOLECULE>
CC(C)NCC(O)CO/N=C1/c2ccccc2C2CCCCCC12OCCO (stereo not drawn)

>  <TEST_READOUT>
pIC50

>  <VAL>
< 5.00

$$$$
>  <MOLECULE>
COc1cc(CCNCC(O)CO/N=C2/c3cc(F)ccc3C3CCCCC23OC)cc(OC)c1 (stereo not drawn)

>  <TEST_READOUT>
pIC50

>  <VAL>
< 5.00

$$$$
>  <MOLECULE>
COC12CCCCCC1c1ccccc1/C2=N/OCC(O)CNC(C)C (stereo not drawn)

>  <TEST_READOUT>
pIC50

>  <VAL>
7.46

$$$$
>  <MOLECULE>
CC(C)(C)NCC(O)CO/N=C1/c2ccccc2C2CCCCCC12OCCO (stereo not drawn)

>  <TEST_READOUT>
pIC50

>  <VAL>
5.10

$$$$
>  <MOLECULE>
COC12CCCCC1c1ccc(F)cc1/C2=N/OCC(O)CNC(C)(C)C (stereo not drawn)

>  <TEST_READOUT>
pIC50

>  <VAL>
6.35

$$$$
>  <MOLECULE>
COC12CCCCCC1c1ccccc1/C2=N/OCC(O)CNC(C)(C)C (stereo not drawn)

>  <TEST_READOUT>
pIC50

>  <VAL>
6.36

$$$$
>  <MOLECULE>
COc1cc(CCNCC(O)CO/N=C2/c3ccccc3C3CCCCC23OC)cc(OC)c1 (stereo not drawn)

>  <TEST_READOUT>
pIC50

>  <VAL>
< 5.00

$$$$
>  <MOLECULE>
CC(C)NCC(O)CO/N=C1/c2ccccc2C2CCCCC12O (stereo not drawn)

>  <TEST_READOUT>
pIC50

>  <VAL>
< 5.00

$$$$
